// provenance: ChEMBL document CHEMBL1147148

- Assay Notes: Cytotoxicity against human Hep3B cells by MTT method
- Assay type: cell-based, Hep 3B2
Value Kind: IC50

- Molecule: "C[C@@]12CC([C@@]3(O)[C@H](O)C[C@H]4[C@@H]5C[C@H]6O[C@]67[C@@H](O)C=CC(=O)[C@]7(C)[C@H]5CC[C@@]43C)[C@@H](C1)OC(=O)[C@]2(C)O (some centres undefined) [ANOMANOLIDE C]"
  Value Observed: "1.85 µg/mL"
- Molecule: "C[C@@]12CC([C@@]3(O)[C@H](O)C[C@H]4[C@@H]5CC[C@]6(O)[C@@H](O)C=CC(=O)[C@]6(C)[C@H]5CC[C@@]43C)[C@@H](C1)OC(=O)[C@]2(C)O (some centres undefined) [ANOMANOLIDE F]"
  Value Observed: "> 20 µg/mL"

Query block: If you can, please state the reported IC50 value of C[C@@]12CC([C@@]3(O)CC[C@H]4[C@@H]5C[C@H]6O[C@]67[C@@H](O)C=CC(=O)[C@]7(C)[C@H]5CC[C@@]43C)[C@@H](C1)OC(=O)[C@]2(C)O (some centres undefined) [ANOMANOLIDE A] .
Result block: 3.63 µg/mL

Query block: C[C@@]12CC([C@@]3(O)[C@H](O)C[C@H]4[C@@H]5C[C@H](Cl)[C@]6(O)[C@@H](O)C=CC(=O)[C@]6(C)[C@H]5CC[C@@]43C)[C@@H](C1)OC(=O)[C@]2(C)O (some centres undefined) [ANOMANOLIDE D] , same question.
Result block: 19 µg/mL

* * *

- Test system: HepG2
- Assay Notes: Cytotoxicity against human HepG2 cells by MTT method
- Type: cell-based
Value Kind: IC50

Example results:
- Compound: "C[C@@]12CC([C@@]3(O)[C@H](O)C[C@H]4[C@@H]5C[C@H](O)[C@]6(O)CC=CC(=O)[C@]6(C)[C@H]5CC[C@@]43C)[C@@H](C1)OC(=O)[C@]2(C)O (stereo partly drawn) [ANOMANOLIDE E]"
  Value Observed: "> 20 µg/mL"
- Compound: "C[C@@]12CC([C@@]3(O)[C@H](O)C[C@H]4[C@@H]5CC[C@]6(O)[C@@H](O)C=CC(=O)[C@]6(C)[C@H]5CC[C@@]43C)[C@@H](C1)OC(=O)[C@]2(C)O (stereo partly drawn) [ANOMANOLIDE F]"
  Value Observed: "> 20 µg/mL"
- Compound: "C[C@@]12CC([C@@]3(O)[C@H](O)C[C@H]4[C@@H]5C[C@H]6O[C@]67[C@@H](O)C=CC(=O)[C@]7(C)[C@H]5CC[C@@]43C)[C@@H](C1)OC(=O)[C@]2(C)O (stereo partly drawn) [ANOMANOLIDE C]"
  Value Observed: "4.41 µg/mL"
- Compound: "COc1cccc2c1C(=O)c1c(O)c3c(c(O)c1C2=O)C[C@@](O)(C(=O)CO)C[C@@H]3O[C@H]1C[C@H](N)[C@H](O)[C@H](C)O1"
  Value Observed: "0.46 µg/mL"
- Compound: "CC1=C(C)C(=O)O[C@@H]([C@@H](C)[C@@]2(O)CC[C@H]3[C@@H]4C[C@H](O)[C@]5(O)[C@@H](O)C=CC(=O)[C@]5(C)[C@H]4CC[C@@]32C)C1"
  Value Observed: "> 20 µg/mL"
- Compound: "C[C@@]12CC([C@@]3(O)[C@H](O)C[C@H]4[C@@H]5C[C@H](Cl)[C@]6(O)[C@@H](O)C=CC(=O)[C@]6(C)[C@H]5CC[C@@]43C)[C@@H](C1)OC(=O)[C@]2(C)O (stereo partly drawn) [ANOMANOLIDE D]"
  Value Observed: "> 20 µg/mL"

Query block: If you can, please state the reported IC50 value of CC1=C(C)C(=O)O[C@@H]([C@@H](C)[C@@]2(C)C3=C(C[C@H]2O)[C@@H]2C[C@H](O)[C@]4(O)[C@@H](O)C=CC(=O)[C@]4(C)[C@H]2CC3)C1 [TUBOCAPSENOLIDE F] .
Result block: > 20 µg/mL

Query block: CC1=C(C)C(=O)O[C@@H]([C@@H](C)[C@@]2(C)C3=C(C[C@H]2O)[C@@H]2C[C@H](Cl)[C@]4(O)[C@@H](O)C=CC(=O)[C@]4(C)[C@H]2CC3)C1 [TUBOCAPSENOLIDE G] , same question.
Result block: 19.1 µg/mL

* * *

- Test system: MDA-MB-231
- Assay Notes: Cytotoxicity against human MDA-MB-231 cells by MTT method
- Format: cell-based
Value Kind: IC50

Example results:
- Compound: "CC1=C(C)C(=O)O[C@@H]([C@@H](C)[C@@]2(C)C3=C(C[C@H]2O)[C@@H]2C[C@H](Cl)[C@]4(O)[C@@H](O)C=CC(=O)[C@]4(C)[C@H]2CC3)C1 [TUBOCAPSENOLIDE G]"
  IC50: "> 20 mg/L"
- Compound: "C[C@@]12CC([C@@]3(O)[C@H](O)C[C@H]4[C@@H]5CC[C@]6(O)[C@@H](O)C=CC(=O)[C@]6(C)[C@H]5CC[C@@]43C)[C@@H](C1)OC(=O)[C@]2(C)O (stereo partly drawn) [ANOMANOLIDE F]"
  IC50: "> 20 mg/L"

// switching to the query compound
Query block: If you can, please state the reported IC50 value of C[C@@]12CC([C@@]3(O)[C@H](O)C[C@H]4[C@@H]5C[C@H](Cl)[C@]6(O)[C@@H](O)C=CC(=O)[C@]6(C)[C@H]5CC[C@@]43C)[C@@H](C1)OC(=O)[C@]2(C)O (stereo partly drawn) [ANOMANOLIDE D] .
Result block: > 20 mg/L
